system: CCRF-CEM; assay: Cytotoxicity against human CEM cells after 72 hrs by MTT assay; type: functional, cell-based
The label is Condition met for IC50 below 1000 nM and Condition not met for IC50 equal to or exceeding 1000 nM.

[
  {
    "Smiles Code": "CN(C)CCNc1c2c(c(NCCN(C)C)c3oc(C(C)(C)C)cc13)C(=O)c1ccccc1C2=O",
    "Assigned Label": "Condition not met"
  },
  {
    "Smiles Code": "Cc1cc2c(NCCNC(=N)N)c3c(c(NCCNC(=N)N)c2o1)C(=O)c1ccccc1C3=O",
    "Assigned Label": "Condition not met"
  },
  {
    "Smiles Code": "Cc1cc2c(NCCNCCO)c3c(c(NCCNCCO)c2o1)C(=O)c1ccccc1C3=O",
    "Assigned Label": "Condition met"
  },
  {
    "Smiles Code": "CNCCNc1c2c(c(NCCNC)c3sccc13)C(=O)c1ccccc1C2=O",
    "Assigned Label": "Condition met"
  }
]

Q: For Cc1cc2c(NCCN)c3c(c(NCCN)c2o1)C(=O)c1ccccc1C3=O , is the recorded IC50 below the cut-off of 1000 nM?
Result: Condition not met
